Item-by-item account of logP[b]
assay: log P by HPLC on reversed-phase columns (C 18), EEC directive 79/831 Annex V.A8; assay type: physicochemical; conditions: method [b]
Answer as a number with no unit attached.

Sample records with logP[b]:
[[record]]
compound = "Cc1cc(C)c(-n2cnc3scnc3c2=O)cc1SCC(F)(F)F"
measurement_label = "logP[b]"
numeric_value = 2.64

[[record]]
compound = "Cc1cc(F)c(-n2cnc3cnn(C)c3c2=O)cc1[S+]([O-])CC(F)(F)F (stereo not drawn)"
measurement_label = "logP[b]"
numeric_value = 1.81

[[record]]
compound = "N#Cc1ccc(-n2cnc3ccsc3c2=O)cc1SCC(F)(F)F"
measurement_label = "logP[b]"
numeric_value = 2.31

[[record]]
compound = "Cc1cc(F)c(-n2cnc3sccc3c2=O)cc1SCC(F)(F)F"
measurement_label = "logP[b]"
numeric_value = 3.14

[[record]]
compound = "Cc1cc(C)c([S+]([O-])CC(F)(F)F)cc1-n1cnc2c(cnn2C)c1=O (racemic)"
measurement_label = "logP[b]"
numeric_value = 1.74

[[record]]
compound = "Cc1cc(F)c(-n2cnc3sccc3c2=O)cc1[S+]([O-])CC(F)(F)F (stereo not drawn)"
measurement_label = "logP[b]"
numeric_value = 2.09

[[record]]
compound = "Cc1cc(F)c(-n2cnc3c(Cl)csc3c2=O)cc1SCC(F)(F)F"
measurement_label = "logP[b]"
numeric_value = 3.41

[[record]]
compound = "Cc1cc(C)c(-n2c(C(F)(F)F)nc3c(cnn3C)c2=O)cc1SCC(F)(F)F"
measurement_label = "logP[b]"
numeric_value = 3.77


May I ask what logP[b] has been recorded for Cn1cnc2c(=O)n(-c3cc(SCC(F)(F)F)c(Cl)cc3F)cnc21 ? 2.17
